molecular target: CLK3 (R134-T484) (Homo sapiens, UniProt P49761, A319V); settings: binder
Sequence (P49761 134-484 A319V): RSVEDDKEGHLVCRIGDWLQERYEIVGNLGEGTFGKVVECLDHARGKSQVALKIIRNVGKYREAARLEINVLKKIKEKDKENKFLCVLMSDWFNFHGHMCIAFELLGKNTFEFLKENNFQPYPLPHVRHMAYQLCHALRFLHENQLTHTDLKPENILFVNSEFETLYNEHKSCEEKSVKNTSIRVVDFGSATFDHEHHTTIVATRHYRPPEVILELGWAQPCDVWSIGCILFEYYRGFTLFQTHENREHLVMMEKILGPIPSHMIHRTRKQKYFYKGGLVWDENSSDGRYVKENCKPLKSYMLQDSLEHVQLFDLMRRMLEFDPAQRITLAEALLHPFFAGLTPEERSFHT
Classification field: enter True for ΔTm A319V CLK3 values not below 6 °C, False for values below it.

# example entries with known answers
compound="Cn1c2c(c3ccc(Cl)c(Cl)c31)C(C#N)C1(CCNCC1)NC2=O (racemic)" measured_target="CLK3 (R134-T484) (Homo sapiens, UniProt P49761, A319V)" qualitative_label=False
compound=O=C1NCc2ccc3c(-c4cccc(Cl)c4)c[nH]c3c21 measured_target="CLK3 (R134-T484) (Homo sapiens, UniProt P49761, A319V)" qualitative_label=False
compound="Nc1ncnc2c1c(I)cn2C1OC(CO)C(O)C1O (stereo not shown)" measured_target="CLK3 (R134-T484) (Homo sapiens, UniProt P49761, A319V)" qualitative_label=True
compound="CC(=O)c1cccc(-c2cnc3ccc(NC(CO)C(C)C)nn23)c1 (stereo not shown)" measured_target="CLK3 (R134-T484) (Homo sapiens, UniProt P49761, A319V)" qualitative_label=True
compound=COC(=N)c1nc2ccc3ncnc(Nc4ccc(OC)cc4F)c3c2s1 measured_target="CLK3 (R134-T484) (Homo sapiens, UniProt P49761, A319V)" qualitative_label=True

**Q:** Entry "O=c1c2c(ccc3nc(-c4cccnc4)sc32)ncn1C1CC1" : is its ΔTm A319V CLK3 no less than 6 °C?
**A:** False

**Q:** // same read-out, input: "CC(=O)c1cccc(-c2cnc3ccc(NCC4CC4)nn23)c1"
**A:** False

---

Provide the recorded ΔTm wild type CLK1 for the entries that follow.
molecular target: CLK1 (H148-I484) (Homo sapiens, UniProt P49759); conditions: binder
Sequence (P49759 148-484): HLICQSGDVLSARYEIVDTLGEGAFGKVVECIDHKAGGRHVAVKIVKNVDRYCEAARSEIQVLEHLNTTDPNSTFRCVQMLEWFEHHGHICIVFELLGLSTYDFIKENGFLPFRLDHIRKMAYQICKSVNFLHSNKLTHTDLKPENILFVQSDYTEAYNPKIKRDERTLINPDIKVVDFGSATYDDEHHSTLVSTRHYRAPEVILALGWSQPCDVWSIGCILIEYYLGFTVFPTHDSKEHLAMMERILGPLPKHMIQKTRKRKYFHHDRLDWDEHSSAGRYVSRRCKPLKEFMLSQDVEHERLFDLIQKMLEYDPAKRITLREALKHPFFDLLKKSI
Answers are plain numbers, in °C.

Go through the items and report each one's ΔTm wild type CLK1.
1. CC(=O)c1cccc(-c2cnc3ccc(NC(CO)C(C)C)nn23)c1 (stereo not drawn)
2. Cn1cc(-c2ccc3occ(-c4cccc(-c5ccncc5)c4)c3n2)cn1

**A:**
1. 6.8
2. 9.3

**Q:** Recorded ΔTm wild type CLK1 of "O=c1c2c(ccc3nc(-c4cccnc4)sc32)ncn1C1CC1" , please.
**A:** 9.5

Origin of measurements: paper doi:10.1101/2020.07.01.182642v1
